These entries and their values trace back to the supplement of paper PMC9170038.

This section presents sequences with their documented apparent KD of MS2 coat protein values.
Tested on: MS2 coat protein
Test: apparent KD of MS2 coat protein; designed switch direction (-1 OFF switch, 1 ON switch): -1; higher = weaker reporter binding
Conditions: input ligand: none

| BIOSEQUENCE | TEST SYSTEM | apparent KD of MS2 coat protein [nM] |
| --- | --- | --- |
| AGCCUAGCAGGAUAUGCCCGGGAUAACAUGAGGAUCACCCAUGUGACUGAUUGAUAUCUUGCAGAAGGGCUAGGGA [JL-EX5-4.06 ViennaUCT mod] (Eterna round: R97, puzzle: Exclusion 5) | MS2 coat protein | 25.5 |
| CAAACCAGAGGAUAUGCGCAUAGAUCAGACUUUGUUUCUGAACAUGAGGAUCACCCAUGUAGAAGGCUGUAAAA [Ex2 #83] (Eterna round: R97, puzzle: Exclusion 2) | MS2 coat protein | 29.7 |
| CGAUGCUCGAGUCCACAUGAGGAUCACCCAUGUCGAGUUAGCGAGGAUAUCGGAGACACAUAGUAUGAGAAGGCGCGAACCUGA [Ex NG3 #20] (Eterna round: R96, puzzle: Exclusion NG 3) | MS2 coat protein | 13.6 |
| GGUCAGAUGGUAGGAUAUCCAUAUCGAGUGACCCUUUCAUAACAUGAGGAUCACCCAUGUCGGUGGGAGAAGGGCCGUACGGUG [salish99_ExNG02_R04_023] (Eterna round: R96, puzzle: Exclusion NG 2) | MS2 coat protein | 48.8 |
| CACCUCGUAGCAGGAUAUUAGAGCUUCCGCAAAUGAGAAGGGCUACGAAACACUUGAGGAUCACCCAAGUACCGUGGUCCUCUA [Mutated MS2 EX1.11] (Eterna round: R96, puzzle: Exclusion NG 1) | MS2 coat protein | 22.3 |

----------
Tested on: MS2 coat protein
Test: apparent KD of MS2 coat protein; designed switch direction (-1 OFF switch, 1 ON switch): -1; higher = weaker reporter binding
Details: Eterna round: R95; input ligand: microRNA oligo, concentration not stated

| BIOSEQUENCE | TEST SYSTEM | MEASUREMENT UNIT | apparent KD of MS2 coat protein |
| --- | --- | --- | --- |
| AAAUAACAAGCAGGAUCCUACAUGAGGAUCACCCAUGUGCUCGUCUUAUAAAGUACUAUCACGAAAGUGAUAGUACA [Sensor 3, v1 - 14] (puzzle: Sensor v3, turn-off variant 1) | MS2 coat protein | nM | 84.6 |
| AAGCGCGUAGGAUAUACAUGAGGAUCACCCAUGUGAGGAGGGAGUUGGAGGUGUGGAAGUAGAAGGACGGAGUG [JR_Exclu3_Sub079] (puzzle: Exclusion 3) | MS2 coat protein | nM | 26.9 |
| UCGGCGCGAGGAUAUACGUUUGCGCUUUUUCGUUUUUGUGUACAUGAGGAUCACCCAUGUAGAAGGCGCGCCGC [Apr-15 SS2-18] (puzzle: Exclusion 2) | MS2 coat protein | nM | 14.9 |
| GAUGAGAGAGGAUAUACAUGAGGAUCACCCAUGUAAUUUUCGGACAUGGAAGCUGGAUGUAGAAGGCUCGCAUG [Leritete] (puzzle: Exclusion 3) | MS2 coat protein | nM | 19.6 |
| GAGUAGGUAGGAUAUACGAUAAUAUAGGGUAGAUAUAUAACACAUGAGGAUCACCCAUGUAGAAGGACCAUGAG [Mat - Exclusion 2 - Mod of my Tesla design - D62] (puzzle: Exclusion 2) | MS2 coat protein | nM | 37.1 |
